System: U251 CNS
PROTOCOL_SUMMARY: NCI tumour cell line growth inhibition, 48 h
QUANTITY_NAME: TGI

Below, each entry is followed by its recorded TGI result.
{"columns": ["COMPOUND", "TGI"],
 "data": [
  ["O=[N+]([O-])c1ccc(-c2nc(/C=N/N3CCCCC3)cs2)o1", "> 100 µM"],
  ["Cc1ccc(-n2c(C)n[nH]c2=O)cc1", "> 100 µM"],
  ["O=C1/C(=C/c2ccc(Cl)cc2)CCC/C1=C\\c1ccc(O)c(CN2CCCCC2)c1", "57.1 µM"]
]}

For the compound shown here, CCC(=O)Oc1cc(/C=C/C(=O)O[C@H]2C[C@H]3CN4CCc5c([nH]c6cc(OC)ccc56)[C@@H]4C[C@@H]3[C@@H](C(=O)OC)[C@@H]2OC)ccc1OC , give the reported TGI.
88.1 µM

For the compound shown here, Cn1ncc(NCCn2cnc3c2c(=O)n(C)c(=O)n3C)c(Cl)c1=O , give the reported TGI.
> 100 µM

For the compound shown here, COc1cc(C(=O)/C=C/c2cc(-c3cc(OC)c(OC)c(OC)c3)n[nH]2)cc(OC)c1OC , give the reported TGI.
2.96 µM

For the compound shown here, CC(=O)Oc1cc2c[n+](C)c3c4cc(OC(C)=O)c(OC(C)=O)cc4ccc3c2cc1OC(C)=O , give the reported TGI.
> 100 µM

For the compound shown here, CN(C)c1ccc(Cc2cc(C(C)(C)C)cc(C(C)(C)C)c2O)cc1 , give the reported TGI.
30.1 µM

---

Test system: SNB-75 CNS
PROTOCOL_SUMMARY: NCI tumour cell line growth inhibition, 48 h; in the data active = GI50 below about 0.43 µM; inactive = the rest
I would appreciate it if you answered using one of these outcomes: active, inactive

Examples from the recorded data:
{"columns": ["MOLECULE", "TEST_TARGET", "LABEL"],
 "data": [
  ["COC(=O)c1ccc([C@H]2c3[nH]c4ccccc4c3C[C@H](C(=O)OC)N2C(=O)CCl)cc1", "SNB-75 CNS", "active"],
  ["COc1ccc2oc(=O)cc(C3c4ccc([nH]4)C(c4cc(=O)oc5ccc(OC)cc45)c4ccc([nH]4)C(c4cc(=O)oc5ccc(OC)cc45)c4ccc([nH]4)C(c4cc(=O)oc5ccc(OC)cc45)c4ccc3[nH]4)c2c1 (stereo unspecified)", "SNB-75 CNS", "inactive"],
  ["O=C(O)[C@@H]1CCCN1Cc1cc2cc3c(cc2c2cc(OCc4ccccc4)ccc12)OCO3", "SNB-75 CNS", "inactive"],
  ["O=C1N=C(c2c(-c3[nH]c(=O)c4ccc(Br)cc4c3O)c(O)c3ccccc3c2O)C(=O)c2cc(Br)ccc21", "SNB-75 CNS", "active"],
  ["CC(=O)O[C@H]1C(=O)[C@@]2(C)[C@H]([C@H](OC(=O)c3ccccc3)[C@]3(O)C[C@H](OC(=O)[C@H](O)[C@@H](NC(=O)c4ccoc4)c4ccccc4)C(C)=C1C3(C)C)[C@]1(OC(C)=O)CO[C@@H]1C[C@@H]2O", "SNB-75 CNS", "active"]
]}

We next turn to a different molecule, shown below.
Given Cn1cc(-c2ccc(-c3cn(C)c4ncccc34)[nH]2)c2cccnc21 , state the outcome it received in this test.
inactive

---

Reported TGI values are given for each entry in this list.
System: SK-OV-3 ovarian
PROTOCOL_SUMMARY: NCI tumour cell line growth inhibition, 48 h

Below, each entry is followed by its recorded TGI result.
{"columns": ["MOLECULE", "TGI"],
 "data": [
  ["Cc1ccc(N=Nc2c(O)c(S(=O)(=O)O)cc3cc(S(=O)(=O)O)ccc23)c(C)c1", "> 100 µM"],
  ["O=P(Nc1ccccc1)(Oc1ccccc1)N1CCN(c2ccccc2)CC1 (stereo not given)", "33.3 µM"]
]}

For the molecule shown here, Cc1cc2c(C(C)C)c(O)c(O)c(C=NCC3CCCN4CCCCC34)c2cc1-c1cc2c(C=NCC3CCCN4CCCCC34)c(O)c(O)c(C(C)C)c2cc1C (stereo not given) , give the reported TGI.
18.1 µM

For the molecule shown here, COc1cc2c3c(n(CCCN(C)C)c(=O)c2cc1OC)-c1cc2c(cc1C3=O)OCO2 , give the reported TGI.
4.33 µM

For the molecule shown here, C[Si](C)(C)CC(N)=O , give the reported TGI.
> 100 µM

For the molecule shown here, COc1ccc(OC)c(Nc2nc3ccccc3c3c2-c2ccc(OC)cc2C3=O)c1 , give the reported TGI.
> 100 µM

For the molecule shown here, CCOC(=O)c1c(O)cc(=O)[nH]c1N1CCOCC1 , give the reported TGI.
> 100 µM

For the molecule shown here, CC(=O)O[C@H]1C(=O)[C@@]2(C)[C@H]([C@H](OC(=O)c3ccccc3)[C@]3(O)C[C@H](OC(=O)[C@H](O)[C@@H](NC(=O)c4ccoc4)c4ccccc4)C(C)=C1C3(C)C)[C@]1(OC(C)=O)CO[C@@H]1C[C@@H]2O , give the reported TGI.
32.7 µM

For the molecule shown here, CC1(C)CC2(S(=O)(=O)c3ccccc3)ON1CC2S(=O)(=O)c1ccccc1 (stereo not given) , give the reported TGI.
> 100 µM

For the molecule shown here, COC(=O)[C@H](Cc1c[nH]c2ccccc12)NC(=O)OCC1OC(n2cc(C)c(=O)[nH]c2=O)CC1N=[N+]=[N-] (stereo not given in full) , give the reported TGI.
> 100 µM

For the molecule shown here, CO/N=C/C=C\C(=O)N/C=C/C[C@H]1/C=C/[C@H](O)/C=C\C=C\c2cccc(O)c2C(=O)O1 , give the reported TGI.
> 100 µM

For the molecule shown here, CC(=O)CC1(O)C(=O)c2c(Br)sc(Br)c2C1=O , give the reported TGI.
> 100 µM

---

Tested on: UACC-62 melanoma
PROTOCOL_SUMMARY: NCI tumour cell line growth inhibition, 48 h; in the data active = GI50 below about 0.43 µM; inactive = the rest
I would appreciate it if you answered using one of these outcomes: active, inactive

Given O=c1cc(N2CCOCC2)oc2c(-c3ccc4c(c3)OCCO4)csc12 , state the outcome it received in this test.
active

Given COc1cc2c3c(n(CCCNCCCNCCCn4c5c(c6cc(OC)c(OC)cc6c4=O)C(=O)c4ccccc4-5)c(=O)c2cc1OC)-c1ccccc1C3=O , state the outcome it received in this test.
inactive

Given CCCCCCC/C(=N\N=C(N)N)c1ccc(O)cc1 , state the outcome it received in this test.
inactive

Given COc1ccc2oc(=O)cc(C3c4ccc([nH]4)C(c4cc(=O)oc5ccc(OC)cc45)c4ccc([nH]4)C(c4cc(=O)oc5ccc(OC)cc45)c4ccc([nH]4)C(c4cc(=O)oc5ccc(OC)cc45)c4ccc3[nH]4)c2c1 (stereo not given) , state the outcome it received in this test.
inactive

---

Tested on: UACC-257 melanoma
PROTOCOL_SUMMARY: NCI tumour cell line growth inhibition, 48 h
QUANTITY_NAME: TGI

Below, each entry is followed by its recorded TGI result.
{"columns": ["MOLECULE", "RESULT"],
 "data": [
  ["O=C(/C=C/c1ccc(OCc2ccccc2)c(OCc2ccccc2)c1)OCc1ccccc1", "> 100 µM"],
  ["COc1ccc(Nc2nc(C#N)c(N)s2)cc1", "> 100 µM"],
  ["CCOC(=O)c1cnc2oc(-c3ccc(OC)cc3)nn2c1=O", "> 100 µM"],
  ["CC(O)C1(CNc2cc(Cl)nc(N)n2)CCCC1 (centres undefined)", "> 100 µM"],
  ["CC(C)(C)C1CCC2c3c([nH]c4ccccc34)C3C(=O)N(c4ccc(C(=O)O)cc4)C(=O)C3C2C1 (centres undefined)", "28.3 µM"],
  ["CCN(CCCl)CCCCNc1c2ccccc2nc2ccc(OC)cc12", "10.5 µM"],
  ["COC(=O)c1ccccc1C1CN=NC12Cc1c(C)cccc1C2=O (centres undefined)", "> 100 µM"],
  ["CC#C[C@@]1(O)CCCCC1O (some centres undefined)", "> 100 µM"]
]}

Please find the next molecule below.
For the molecule shown here, Oc1cccc2cc(Cl)cnc12 , give the reported TGI.
81.7 µM

---

Reported TGI values are given for each entry in this list.
Test system: MALME-3M melanoma
PROTOCOL_SUMMARY: NCI tumour cell line growth inhibition, 48 h
Number only, in µM; omit the unit.

{"columns": ["COMPOUND", "QUANTITATIVE_READOUT"],
 "data": [
  ["O=c1cc(N2CCOCC2)oc2c(-c3ccc4c(c3)OCCO4)csc12", 1.8],
  ["CSC1C=C(C(C)C)CCC1(C)SC (configuration not stated)", 26.1],
  ["CO/N=C(\\COc1ccc2c(=O)cc(-c3ccccc3)oc2c1)c1ccc(F)cc1", 45.9]
]}

For the compound shown here, NCCOc1ncccc1/C=C1\C2C=CC=CC2C2C=CC(F)=CC12 (configuration not stated) , give the reported TGI.
3.17

For the compound shown here, O=S(=O)(Cc1nc2ccccc2s1)c1nc2ccccc2s1 , give the reported TGI.
24.9
